Emax reference
# target_entity: CMKLR1 (Homo sapiens)
# procedure_details: BRET-based arrestin 3 recruitment assay
# measurement_conditions: read-out: Emax [%] ± SEM
Where a SMILES comes first, the peptide text is derived from it. Bridges are numbered along the chain shown (N, C = ends). [ ]: non-standard residue; d: D form. PEG4 = NCCOCCOCCOCCOCCC(=O)O; d(hCys) = N[C@H](CCS)C(=O)O
Respond with the bare value in %.

>  <compound>
C[C@@H]1NC(=O)[C@H](Cc2ccccc2)NC(=O)[C@H](CCC(N)=O)NC(=O)[C@H](NC(=O)[C@@H]2CCCN2C(=O)[C@H](Cc2ccccc2)NC(=O)[C@H](Cc2ccc(O)cc2)NC(=O)CCOCCOCCOCCOCCN)CCSSC[C@@H](C(=O)O)NC(=O)[C@H](Cc2c[nH]c3ccccc23)NC1=O [$$ 18, EG4-[x4,W8,C9]-chemerin-9] (H-[PEG4]YFP[d(hCys)]QFAWC-OH; disulfide 5-10)

>  <units>
%

>  <Emax>
69

$$$$
>  <compound>
C[C@@H]1NC(=O)[C@H](Cc2ccccc2)NC(=O)[C@H](CCC(N)=O)NC(=O)[C@H](NC(=O)[C@@H]2CCCN2C(=O)[C@H](Cc2ccccc2)NC(=O)[C@H](Cc2ccc(O)cc2)NC(=O)CCOCCOCCOCCOCCN)CCSSC[C@@H](C(=O)O)NC(=O)[C@H](Cc2ccccc2)NC1=O [$$ 16, EG4-[x4,C9]-chemerin-9] (H-[PEG4]YFP[d(hCys)]QFAFC-OH; disulfide 5-10)

>  <units>
%

>  <Emax>
102

$$$$
>  <compound>
CC(=O)NCC(=O)N[C@@H](Cc1ccccc1)C(=O)N[C@@H](CC(C)C)C(=O)NCC(=O)N[C@@H](Cc1ccc(O)cc1)C(=O)N[C@@H](Cc1ccccc1)C(=O)N1CCC[C@H]1C(=O)N[C@@H]1CCSSC[C@@H](C(=O)O)NC(=O)[C@H](Cc2ccccc2)NC(=O)[C@H](C)NC(=O)[C@H](Cc2ccccc2)NC(=O)[C@H](CCC(N)=O)NC1=O [$$ 20, GFLG-[x4,C9]-chemerin-9] (Ac-GFLGYFP[d(hCys)]QFAFC-OH; disulfide 8-13)

>  <units>
%

>  <Emax>
89

$$$$
>  <compound>
C[C@@H]1NC(=O)[C@H](Cc2ccccc2)NC(=O)[C@H](CCC(N)=O)NC(=O)[C@H](NC(=O)[C@@H]2CCCN2C(=O)[C@H](Cc2ccccc2)NC(=O)[C@@H](N)Cc2ccc(O)cc2)CCSSC[C@@H](C(=O)O)NC(=O)[C@H](Cc2c[nH]c3ccccc23)NC1=O [$$ 14, [x4,W8,C9]-chemerin-9] (H-YFP[d(hCys)]QFAWC-OH; disulfide 4-9)

>  <units>
%

>  <Emax>
97

$$$$

Please examine the following record next.
I'd like to know its Emax. The compound in question is C[C@@H]1NC(=O)[C@H](Cc2ccccc2)NC(=O)[C@H](CCC(N)=O)NC(=O)[C@H](NC(=O)[C@@H]2CCCN2C(=O)[C@H](Cc2ccccc2)NC(=O)[C@@H](N)Cc2ccc(O)cc2)CCSSC[C@@H](C(=O)O)NC(=O)[C@H](Cc2ccccc2)NC1=O [$$ 13, [x4,C9]-chemerin-9] (H-YFP[d(hCys)]QFAFC-OH; disulfide 4-9) 86.8

* * *

# procedure_details: Plasma stability assay of Tam-labeled peptides
# measurement_conditions: human, human blood plasma
Where a SMILES comes first, the peptide text is derived from it. Bridges are numbered along the chain shown (N, C = ends). [ ]: non-standard residue; d: D form. The star is where a group is joined. X1 = CN(C)c1ccc2c(-c3cc(C(=O)*)ccc3C(=O)[O-])c3ccc(=[N+](C)C)cc-3oc2c1; PEG4 = NCCOCCOCCOCCOCCC(=O)O; d(hCys) = N[C@H](CCS)C(=O)O
experimental_endpoint: half-life

I'd like to know its half-life. The compound in question is C[C@@H]1NC(=O)[C@H](Cc2ccccc2)NC(=O)[C@H](CCC(N)=O)NC(=O)[C@H](NC(=O)[C@@H]2CCCN2C(=O)[C@H](Cc2ccccc2)NC(=O)[C@H](Cc2ccc(O)cc2)NC(=O)CCOCCOCCOCCOCCNC(=O)c2ccc(C(=O)[O-])c(-c3c4ccc(=[N+](C)C)cc-4oc4cc(N(C)C)ccc34)c2)CCSSC[C@@H](C(=O)O)NC(=O)[C@H](Cc2ccccc2)NC1=O [$$ 17, Tam-EG4-[x4,C9]-chemerin-9] ({X1-PEG4}-YFP[d(hCys)]QFAFC-OH; disulfide 4-9) > 48 h

* * *

pEC50 ± SEM reference
# target_entity: CMKLR1 (Homo sapiens)
# Sequence (Q99788 1-373): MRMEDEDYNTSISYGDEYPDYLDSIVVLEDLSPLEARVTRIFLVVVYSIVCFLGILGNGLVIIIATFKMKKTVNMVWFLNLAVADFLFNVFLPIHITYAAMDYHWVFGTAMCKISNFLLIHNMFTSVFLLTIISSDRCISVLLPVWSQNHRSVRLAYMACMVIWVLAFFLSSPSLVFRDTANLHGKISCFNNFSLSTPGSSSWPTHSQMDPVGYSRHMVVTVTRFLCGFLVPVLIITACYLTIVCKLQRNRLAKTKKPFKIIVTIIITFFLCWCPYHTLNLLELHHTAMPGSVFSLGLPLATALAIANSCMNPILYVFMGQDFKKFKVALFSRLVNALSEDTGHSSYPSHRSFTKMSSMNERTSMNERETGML
# procedure_details: Ca2+ mobilization assay (G protein-mediated signaling)
# measurement_conditions: COS-7 cells transfected with hCMKLR1_eYFP_GαΔ6qi4myr; normalized to chemerin-9
*1 amine or outer side, *2 acyl side, *3 side chain or, on linkers, in order; H or OH if unused. Where a SMILES comes first, the peptide text is derived from it. Bridges are numbered along the chain shown (N, C = ends). [ ]: non-standard residue; d: D form. hCys = N[C@@H](CCS)C(=O)O; CH2 = C([*:1])[*:2]
Give only the figure.

Form: Entry = C[C@@H]1NC(=O)[C@H](Cc2ccccc2)NC(=O)[C@H](CCC(N)=O)NC(=O)[C@H](NC(=O)[C@@H]2CCCN2C(=O)[C@H](Cc2ccccc2)NC(=O)[C@@H](N)Cc2ccc(O)cc2)CSCSCC[C@@H](C(=O)O)NC(=O)[C@H](Cc2ccccc2)NC1=O [$$ 9, [c4,X9-TA]-chemerin-9] (H-YFP[dC]QFAF[hCys]-OH; linker 4-9 via CH2) | System = CMKLR1 (Homo sapiens) | pEC50 ± SEM = ____ 7.429

Form: Entry = C[C@@H]1NC(=O)[C@H](Cc2ccccc2)NC(=O)[C@H](CCC(N)=O)NC(=O)[C@H](NC(=O)[C@@H]2CCCN2C(=O)[C@H](Cc2ccccc2)NC(=O)[C@H](N)Cc2ccc(O)cc2)CSCSCC[C@@H](C(=O)O)NC(=O)[C@H](Cc2ccccc2)NC1=O [$$ 11, [y1,c4,X9-TA]-chemerin-9] (H-[dY]FP[dC]QFAF[hCys]-OH; linker 4-9 via CH2) | System = CMKLR1 (Homo sapiens) | pEC50 ± SEM = ____ 7.553

Form: Entry = C[C@@H]1NC(=O)[C@H](Cc2ccccc2)NC(=O)[C@H](CCC(N)=O)NC(=O)[C@H](NC(=O)[C@@H]2CCCN2C(=O)[C@H](Cc2ccccc2)NC(=O)[C@@H](N)Cc2ccc(O)cc2)CSCSC[C@@H](C(=O)O)NC(=O)[C@H](Cc2ccccc2)NC1=O [$$ 7, [c4,C9-TA]-chemerin-9] (H-YFP[dC]QFAFC-OH; linker 4-9 via CH2) | System = CMKLR1 (Homo sapiens) | pEC50 ± SEM = ____ 7.888

Form: Entry = C[C@@H]1NC(=O)[C@H](Cc2ccccc2)NC(=O)[C@H](CCC(N)=O)NC(=O)[C@H](NC(=O)[C@@H]2CCCN2C(=O)[C@H](Cc2ccccc2)NC(=O)[C@@H](N)Cc2ccc(O)cc2)CSSC[C@@H](C(=O)O)NC(=O)[C@H](Cc2ccccc2)NC1=O [$$ 4, [c4,C9]-chemerin-9, reference compound] (H-YFP[dC]QFAFC-OH; disulfide 4-9) | System = CMKLR1 (Homo sapiens) | pEC50 ± SEM = ____ 7.192

* * *

half-life reference
# procedure_details: Plasma stability assay of Tam-labeled peptides
# measurement_conditions: human, human blood plasma
Where a SMILES comes first, the peptide text is derived from it. Bridges are numbered along the chain shown (N, C = ends). [ ]: non-standard residue; d: D form. The star is where a group is joined. ξ: configuration not given here. X1 = CN(C)c1ccc2c(-c3cc(C(=O)*)ccc3C(=O)[O-])c3ccc(=[N+](C)C)cc-3oc2c1; X2 = CN(C)c1ccc2c(-c3cc(C(=O)*)ccc3C(=O)O)c3ccc(=[N+](C)C)cc-3oc2c1; PEG4 = NCCOCCOCCOCCOCCC(=O)O; d(hCys) = N[C@H](CCS)C(=O)O; ξF = NC(Cc1ccccc1)C(=O)O; ξC = NC(CS)C(=O)O

Completed entries (count: 2):
>  <compound>
C[C@@H]1NC(=O)[C@H](Cc2ccccc2)NC(=O)[C@H](CCC(N)=O)NC(=O)[C@H](NC(=O)[C@@H]2CCCN2C(=O)[C@H](Cc2ccccc2)NC(=O)[C@H](Cc2ccc(O)cc2)NC(=O)c2ccc(C(=O)O)c(-c3c4ccc(=[N+](C)C)cc-4oc4cc(N(C)C)ccc34)c2)CSSC[C@@H](C(=O)O)NC(=O)[C@H](Cc2ccccc2)NC1=O [$$ 5, Tam-[c4,C9]-chemerin-9] (X2-YFP[dC]QFAFC-OH; disulfide 4-9)

>  <experimental_endpoint>
half-life

>  <reported_measurement>
> 24 h

$$$$
>  <compound>
C[C@@H]1NC(=O)[C@H](Cc2ccccc2)NC(=O)[C@H](CCC(N)=O)NC(=O)[C@H](NC(=O)[C@@H]2CCCN2C(=O)[C@H](Cc2ccccc2)NC(=O)[C@H](Cc2ccc(O)cc2)NC(=O)CCOCCOCCOCCOCCNC(=O)c2ccc(C(=O)[O-])c(-c3c4ccc(=[N+](C)C)cc-4oc4cc(N(C)C)ccc34)c2)CCSSC[C@@H](C(=O)O)NC(=O)[C@H](Cc2c[nH]c3ccccc23)NC1=O [$$ 19, Tam-EG4-[x4,W8,C9]-chemerin-9] ({X1-PEG4}-YFP[d(hCys)]QFAWC-OH; disulfide 4-9)

>  <experimental_endpoint>
half-life

>  <reported_measurement>
> 48 h

$$$$

Please examine the following record next.
I'd like to know its half-life. The compound in question is CN(C)c1ccc2c(-c3cc(C(=O)NCCCC[C@H]4NC(=O)C(Cc5ccccc5)NC(=O)[C@@H](CCC(N)=O)NC(=O)[C@H](NC(=O)[C@@H]5CCCN5C(=O)[C@@H](Cc5ccccc5)NC(=O)[C@H](N)Cc5ccc(O)cc5)CSSCC(C(=O)O)NC(=O)[C@@H](Cc5ccccc5)NC4=O)ccc3C(=O)[O-])c3ccc(=[N+](C)C)cc-3oc2c1 (stereo partly drawn) [$$ 12, [y1,c4,K7(Tam),C9]-chemerin-9] (H-[dY][dF]P[dC][dQ][ξF][dK](X1)[dF][ξC]-OH; disulfide 4-9) > 24 h
